TEST_NAME: in vitro
Type: cell-based
ASSAY_SETUP: human, huh-7.5 cells
QUANTITY_NAME: viability at 5 µM

### Prompt Which viability at 5 µM is reported for this compound? Cc1ccc(Cn2ncc3ccccc32)cc1 [Compound 185]
### Response ≥ 90%

* * *

TEST_NAME: in vitro
Type: cell-based
ASSAY_SETUP: human, huh-7.5 cells
QUANTITY_NAME: viability at 10 µM

### Prompt Dear colleague, I am looking for the recorded viability at 10 µM of the following compound: Cc1ccc(Cn2ncc3ccccc32)cc1 [Compound 185]
### Response ≥ 90%
